Target: EGF receptor (Homo sapiens, UniProt P00533)
Construct: EGF receptor autophosphorylation in A431 human epidermoid carcinoma; endogenous in cells
Sequence (P00533 25-1210): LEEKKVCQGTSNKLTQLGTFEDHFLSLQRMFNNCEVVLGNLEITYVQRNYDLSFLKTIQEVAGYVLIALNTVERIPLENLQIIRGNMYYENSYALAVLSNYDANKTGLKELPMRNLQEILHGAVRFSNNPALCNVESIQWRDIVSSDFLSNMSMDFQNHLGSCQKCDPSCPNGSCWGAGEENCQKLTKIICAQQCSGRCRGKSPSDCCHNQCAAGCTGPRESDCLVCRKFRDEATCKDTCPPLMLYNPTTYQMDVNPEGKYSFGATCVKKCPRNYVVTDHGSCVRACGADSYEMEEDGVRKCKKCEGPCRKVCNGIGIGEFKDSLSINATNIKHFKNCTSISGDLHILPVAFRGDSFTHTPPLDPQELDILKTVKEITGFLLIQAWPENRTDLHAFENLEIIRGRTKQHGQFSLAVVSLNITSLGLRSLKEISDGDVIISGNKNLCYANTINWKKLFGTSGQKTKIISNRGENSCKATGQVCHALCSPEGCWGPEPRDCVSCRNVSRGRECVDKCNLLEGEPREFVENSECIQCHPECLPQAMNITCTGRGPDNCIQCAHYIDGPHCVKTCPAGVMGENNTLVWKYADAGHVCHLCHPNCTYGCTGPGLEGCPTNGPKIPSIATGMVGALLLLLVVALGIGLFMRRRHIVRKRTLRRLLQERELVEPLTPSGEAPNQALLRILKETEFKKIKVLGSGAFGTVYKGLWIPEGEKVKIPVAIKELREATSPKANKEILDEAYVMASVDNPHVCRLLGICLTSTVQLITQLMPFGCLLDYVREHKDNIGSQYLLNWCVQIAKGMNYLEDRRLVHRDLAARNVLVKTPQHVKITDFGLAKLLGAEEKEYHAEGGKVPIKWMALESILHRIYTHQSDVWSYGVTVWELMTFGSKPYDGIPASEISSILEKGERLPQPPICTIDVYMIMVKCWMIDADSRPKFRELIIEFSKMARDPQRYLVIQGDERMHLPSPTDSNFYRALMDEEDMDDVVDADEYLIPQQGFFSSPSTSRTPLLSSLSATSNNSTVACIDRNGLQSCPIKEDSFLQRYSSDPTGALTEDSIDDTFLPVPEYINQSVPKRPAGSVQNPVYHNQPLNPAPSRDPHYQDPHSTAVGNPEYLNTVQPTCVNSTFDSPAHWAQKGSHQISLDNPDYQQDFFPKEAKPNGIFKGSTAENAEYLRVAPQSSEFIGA
Test: Inhibition of EGF-induced autophosphorylation in A431 epidermoid carcinoma cells
Listed here: items and their measured pIC50.
// scale note: pIC50 = -log10(conc_M); give the bare number

Below are worked cases with known answers.
[[record]]
compound_structure = "Nc1cc2ncnc(Nc3cccc(Br)c3)c2cn1"
target_under_test = "EGF receptor (Homo sapiens, UniProt P00533)"
measurement_type = "pIC50"
data_value = 6.96

[[record]]
compound_structure = "COc1cc2c(Nc3cccc(Br)c3)ncnc2cn1"
target_under_test = "EGF receptor (Homo sapiens, UniProt P00533)"
measurement_type = "pIC50"
data_value = 7.92

[[record]]
compound_structure = "Nc1cc2ncnc(Nc3cccc([N+](=O)[O-])c3)c2cn1"
target_under_test = "EGF receptor (Homo sapiens, UniProt P00533)"
measurement_type = "pIC50"
data_value = 6.60

[[record]]
compound_structure = "CNc1ccc2ncnc(Nc3cccc(Br)c3)c2n1"
target_under_test = "EGF receptor (Homo sapiens, UniProt P00533)"
measurement_type = "pIC50"
data_value = 7.70

[[record]]
compound_structure = "CNc1cc2c(Nc3cccc(Br)c3)ncnc2cn1"
target_under_test = "EGF receptor (Homo sapiens, UniProt P00533)"
measurement_type = "pIC50"
data_value = 7.89


Exercise: Would you mind telling me what pIC50 value was observed for CN(C)c1ccc2ncnc(Nc3cccc(Br)c3)c2n1 ?
Solution: 7.49

Exercise: Same lookup for CN(C)c1cc2c(Nc3cccc(Br)c3)ncnc2cn1 , please.
Solution: 7.68

Exercise: Same lookup for Nc1ccc2ncnc(Nc3cccc(Br)c3)c2n1 , please.
Solution: 7.28

====

Test system: MDA-468 - Human breast carcinoma overexpressing the EGF receptor
Assay: cells
Details: read-out: Antiproliferative IC50 (nM)
measurement-type: IC50 (nM)
A number alone suffices; assume nM.

[[record]]
compound_structure = "CNc1cc2c(Nc3cccc(Br)c3)ncnc2cn1"
measurement_type = "IC50"
data_value = 3000


Consider now this further molecule.
Exercise: Would you mind telling me what IC50 value was observed for CN(C)c1cc2c(Nc3cccc(Br)c3)ncnc2cn1 ?
Solution: 12000

====

Biological target: Human EGF receptor tyrosine kinase (Homo sapiens, UniProt P00533)
Construct: isolated from A431 human epidermoid carcinoma cells which overexpress EGF receptor; endogenous in cells; host or cells: A431 human epidermoid carcinoma cells; purified from the lysate on wheat germ agglutinin sepharose
Sequence (P00533 25-1210): as above
Assay: EGF receptor tyrosine kinase inhibition (phosphorylation of PLC-gamma 1 derived peptide)
Format: biochemical
Conditions: Table 1, values printed in μM; read-out: EGF Receptor Tyrosine Kinase Inhibition IC50
Structures can show the parent of a compound that is named as a salt.
Flag rule - IC50 less than 6 µM flags Y; the remaining entries get N.

Some entries whose results are on file:
[[record]]
molecule = "c1ccc(Nc2ncnc3cccnc23)cc1 [Example 1, Mesylate]"
target_under_test = "Human EGF receptor tyrosine kinase (Homo sapiens, UniProt P00533)"
class_name = "N"

[[record]]
molecule = "CN(C)c1ccc(Nc2ncnc3cc(N)ncc23)cc1"
target_under_test = "Human EGF receptor tyrosine kinase (Homo sapiens, UniProt P00533)"
class_name = "Y"

[[record]]
molecule = "c1ccc(CNc2nc[nH]c3nccc2-3)cc1 [Example 74, 4-Benzylaminopyrrolo[2,3-d]pyrimidine]"
target_under_test = "Human EGF receptor tyrosine kinase (Homo sapiens, UniProt P00533)"
class_name = "N"


Exercise: Take the molecule Nc1cc2ncnc(NCc3ccccc3Br)c2cn1 and say whether its IC50 is less than 6 µM.
Solution: Y

Exercise: Same lookup for Nc1cc2ncnc(Nc3ccc(C(F)(F)F)cc3)c2cn1 , please.
Solution: Y

Source listed as patent US6521620B1.
